test: Primary qHTS for inhibitors of nuclear receptor binding SET domain protein 2 (NSD2) in an RCH-ACV wild type WT cells (2C) (AID 1645877); conditions: RCH-ACV (leukaemia line) NSD2 WT (2C) viability, CellTiter-Glo, 72 h; series mostly up to 44.9 µM; further: nearly all actives have a fitted effect of over 70% in size; further: potency means the concentration at half of the fitted maximal effect
Inconclusive results are not listed. Calls of active or inactive are those of the source. The call rests on the fitted dose curve; in most records, active means well fitted inhibition curve with a large enough effect; inconclusive means small, poorly fitted or top-dose-only effect; inactive means no such curve, though single readings can be large or run the other way.
Readout Name: Potency

INSERT INTO measurements (compound, meas_value) VALUES
  ('NC(=O)Nc1cc(-c2cccc(F)c2)sc1C(=O)NC1CCCNC1 (stereo not drawn)', '0.0817 µM (active)'),
  ('Cc1cc(C(=O)Nc2cccc(C(=O)Nc3cccc(C(F)(F)F)c3)c2)on1', 'inactive'),
  ('CCCCNc1ccc(-c2ccc(CN3CCOCC3)cn2)c(NC2CCC(O)CC2)c1 (stereo not drawn)', '0.796 µM (active)'),
  ('COc1cc(/C=C/C(=O)OC[C@H]2O[C@@](CO)(O[C@H]3O[C@H](CO)[C@@H](O)[C@H](O)[C@H]3O)[C@@H](OC(=O)/C=C/c3ccc(O)c(OC)c3)[C@@H]2O)ccc1O', 'inactive'),
  ('COC(=O)CC(O)CC(O)/C=C/c1c(C)ccc2c1C(O)CC(C)C2 (stereo not drawn)', 'inactive'),
  ('C=CC(C)(O)CC[C@H]1C(=C)CCC2[C@](C)(C(=O)O)CCC[C@@]21C (stereo partly drawn)', 'inactive'),
  ('C=CC(C)(CC/C=C(\C)C(=O)OC)OC1OC(COC(=O)CC(C)(O)CC(=O)O)C(OC2OC(CO)C(O)C(O)C2O)C(O)C1O (stereo not drawn)', 'inactive'),
  ('COc1cccc(Nc2ncnn3ccc(CN4CC[C@@H](N)[C@H](O)C4)c23)c1', '4.68 µM (active)'),
  ('O=C(c1cc2c(cc1F)OC(c1ccc(F)cc1)(c1ccc(Cl)cc1Cl)O2)N1CCOCC1 (stereo not drawn)', '20.5 µM (active)'),
  ('CC(O)CCC1C(CO[C@@H]2O[C@H](CO)[C@@H](O)[C@H](O)[C@H]2O)CC(O)CC1(C)C (stereo partly drawn)', 'inactive'),
  ('O=C1OCc2cc3cccc(O[C@@H]4O[C@H](CO)[C@@H](O)[C@H](O)[C@H]4O)c3c(O)c21', 'inactive'),
  ('C=CC1C(OC2OC(CO)C(O)C(O)C2O)OC=C2C(=O)N3C(C(=O)O)Cc4c([nH]c5ccccc45)C3CC21 (stereo not drawn)', 'inactive'),
  ('CCOc1ccc(NC(=S)N2CCC(C(O)(c3ccccc3)c3ccccc3)CC2)cc1', 'inactive'),
  ('COc1cc2c(cc1OC)CC(=O)N(CCCNC[C@H]1Cc3cc(OC)c(OC)cc31)CC2', 'inactive'),
  ('C=C1C(=O)O[C@@H]2[C@H]1CCC(C)=C1CCC(=O)O[C@]12C', '4.09 µM (active)'),
  ('CC/C=C\C/C=C\C/C=C\CCCCCCCC(=O)OCC(O)COC1OC(CO)C(O)C(O)C1O (stereo not drawn)', 'inactive'),
  ('C=C1C[C@@]23CCC4[C@@](C)(CCC[C@@]4(C)C(=O)OC)C2CC[C@@H]1C3 (stereo partly drawn)', 'inactive'),
  ('CCOCc1cc(OC)c(-c2ccc(C[C@H](NC(=O)c3c(F)cccc3F)C(=O)O)cc2)c(OC)c1', 'inactive');
